- Experimental details: Ratio of drug level in brain to plasma in rat at 2 mg/kg, po after 2 hrs
- Assay type: ADME, organism-based
- Parameters: dose 2 mg/kg, route oral
- Study conditions: read-out: BPR
Readout type: Kp at 2 h
Numbers only.

// lookup Kp at 2 h for CN(C)C(=O)[C@H]1C[C@@H]1c1ccc(-c2ncn(C)c2Sc2ccc(Cl)cn2)cc1
7

###

- Target desc: Fatty-acid amide hydrolase 1 (Rattus norvegicus, UniProt P97612)
- Sequence (P97612 whole entry): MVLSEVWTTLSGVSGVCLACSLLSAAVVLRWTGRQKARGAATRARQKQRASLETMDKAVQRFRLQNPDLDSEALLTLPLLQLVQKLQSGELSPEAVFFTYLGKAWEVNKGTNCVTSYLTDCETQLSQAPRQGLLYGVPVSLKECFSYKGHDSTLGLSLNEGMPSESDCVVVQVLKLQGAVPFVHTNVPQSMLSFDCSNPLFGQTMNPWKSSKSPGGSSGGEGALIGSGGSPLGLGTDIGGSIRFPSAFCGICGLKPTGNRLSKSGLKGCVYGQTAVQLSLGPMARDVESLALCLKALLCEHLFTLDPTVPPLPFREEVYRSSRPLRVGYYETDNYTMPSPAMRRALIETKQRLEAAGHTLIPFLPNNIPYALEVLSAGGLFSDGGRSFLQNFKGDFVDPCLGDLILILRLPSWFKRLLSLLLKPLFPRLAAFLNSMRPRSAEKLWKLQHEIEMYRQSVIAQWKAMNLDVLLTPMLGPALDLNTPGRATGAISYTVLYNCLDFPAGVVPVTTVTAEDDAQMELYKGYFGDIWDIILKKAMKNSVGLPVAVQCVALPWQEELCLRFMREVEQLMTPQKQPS
- Experimental details: Inhibition of rat FAAH expressed in CHO cell lysates assessed as arachidonyl-7-amino-4-methylcoumarin amide hydrolysis to 7-amino 4-methyl coumarin preincubated for 15 mins prior to substrate addition measured after 1 to 3 hrs by fluorescence assay
Answer each item with its documented pIC50.
Numbers only, as −log10 of the molar value.

Some entries whose results are on file:
>  <Smiles repr>
CN(C)C(=O)[C@H]1C[C@@H]1c1ccc(-c2ncn(C)c2Sc2ccc(Cl)cc2)cc1

>  <pIC50>
9.22

$$$$
>  <Smiles repr>
CN(C)C(=O)[C@H]1C[C@@H]1c1ccc(-c2nc(C3CC3)n(C)c2Sc2ccc(Cl)cn2)cc1

>  <pIC50>
6.97

$$$$

Okay, here is my list. What is pIC50 for each of these?
1. Cn1cnc(-c2ccc([C@H]3C[C@@H]3C(=O)NCCF)cc2)c1Sc1ccc(Cl)cn1
2. CNC(=O)[C@H]1C[C@@H]1c1ccc(-c2ncn(C)c2Sc2ccc(Cl)cn2)cc1
3. Cc1nc(-c2ccc([C@H]3C[C@@H]3C(=O)N(C)C)cc2)c(Sc2ccc(Cl)cn2)n1C

[8.38, 8.22, 7.47]

Okay, here is my list. What is pIC50 for each of these?
1. CN(C)C(=O)[C@H]1C[C@@H]1c1ccc(-c2ncn(CCF)c2Sc2ccc(Cl)cn2)cc1
2. NC(=O)[C@H]1C[C@@H]1c1ccc(-c2nn(C3CC3)cc2Sc2ccc(Cl)cc2)cc1
3. Cn1cnc(-c2ccc([C@H]3C[C@@H]3C(N)=O)cc2)c1Sc1ccc(Cl)cc1

8.32
8.38
8.77

Okay, here is my list. What is pIC50 for each of these?
1. CN(C)C(=O)[C@H]1C[C@@H]1c1ccc(-c2c(Sc3ccc(Cl)cn3)ncn2C)cc1
2. CN(C)C(=O)[C@H]1C[C@@H]1c1ccc(-c2ncn(C)c2Sc2ccc(Cl)cn2)cc1

1: 5.86; 2: 8.77
